Would you mind telling me the reported IC50 of each entry?
target: Mu-type opioid receptor (Rattus norvegicus, UniProt P33535)
Sequence (P33535 whole entry): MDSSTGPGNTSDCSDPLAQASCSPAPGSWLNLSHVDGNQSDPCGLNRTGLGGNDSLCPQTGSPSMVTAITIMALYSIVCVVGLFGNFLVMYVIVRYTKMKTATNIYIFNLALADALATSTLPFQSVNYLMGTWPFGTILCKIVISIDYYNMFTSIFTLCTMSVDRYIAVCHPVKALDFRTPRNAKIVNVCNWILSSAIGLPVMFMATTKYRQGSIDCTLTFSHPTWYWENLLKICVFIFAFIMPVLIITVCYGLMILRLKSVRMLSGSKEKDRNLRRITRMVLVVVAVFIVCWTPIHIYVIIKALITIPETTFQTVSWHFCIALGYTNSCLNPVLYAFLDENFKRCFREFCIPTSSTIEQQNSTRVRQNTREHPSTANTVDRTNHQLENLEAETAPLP
Report the value in nM with no unit label.

Query :: Identify measured IC50 obtained with Mu-type opioid receptor (Rattus norvegicus, UniProt P33535) for C[C@H](NC(=O)[C@@H](N)Cc1ccc(O)cc1)C(=O)N[C@H]1Cc2ccccc2CN(CC(=O)N[C@@H](Cc2ccc(O)cc2)C(=O)N2CCC[C@H]2C(=O)N[C@@H](CO)C(N)=O)C1=O .
Result :: 11

Query :: Answer briefly: IC50 recorded on Mu-type opioid receptor (Rattus norvegicus, UniProt P33535) for C[C@@H](NC(=O)[C@@H](N)Cc1ccc(O)cc1)C(=O)N[C@@H](Cc1ccccc1)C(=O)NCC(=O)N[C@@H](Cc1ccc(O)cc1)C(=O)N1CCC[C@H]1C(=O)N[C@@H](CO)C(N)=O
Result :: 2.4

====

species on record: Cavia porcellus; assay: Evaluated for its ability to inhibit electrically induced contractions in the guinea pig ileum (GPI); assay type: functional, organism-based
For each entry below, report its IC50 value.
Only the number, expressed in nM, is required.

Query :: Could you please provide reported IC50 for C[C@@H](NC(=O)[C@@H](N)Cc1ccc(O)cc1)C(=O)N[C@@H](Cc1ccccc1)C(=O)NCC(=O)N[C@@H](Cc1ccc(O)cc1)C(=O)N1CCC[C@H]1C(=O)N[C@@H](CO)C(N)=O ? Thanks!
Result :: 1.06

Query :: Consider the compound C[C@H](NC(=O)[C@@H](N)Cc1ccc(O)cc1)C(=O)N[C@H]1Cc2ccccc2CN(CC(=O)N[C@@H](Cc2ccc(O)cc2)C(=O)N2CCC[C@H]2C(=O)N[C@@H](CO)C(N)=O)C1=O . State its measured IC50.
Result :: 10.8

====

molecular target: Delta-type opioid receptor (Rattus norvegicus, UniProt P33533); experiment: Evaluated for its affinity towards Opioid receptor delta 1 in rat fore brain by displacing the radioligand [3H]DPDPE.
Sequence (P33533 whole entry): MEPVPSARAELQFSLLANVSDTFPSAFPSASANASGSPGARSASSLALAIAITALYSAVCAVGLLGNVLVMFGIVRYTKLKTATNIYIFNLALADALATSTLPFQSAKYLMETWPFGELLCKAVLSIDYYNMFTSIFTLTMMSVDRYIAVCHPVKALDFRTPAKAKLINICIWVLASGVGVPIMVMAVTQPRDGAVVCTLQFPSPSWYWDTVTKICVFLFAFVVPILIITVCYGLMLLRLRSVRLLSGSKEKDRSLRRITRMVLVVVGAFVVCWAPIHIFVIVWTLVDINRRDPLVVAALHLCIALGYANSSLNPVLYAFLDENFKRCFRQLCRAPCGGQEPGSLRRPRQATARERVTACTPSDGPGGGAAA
assay readout: IC50 (nM)
Entry rule: numbers only, all in nM.

Query :: For Delta-type opioid receptor (Rattus norvegicus, UniProt P33533), give IC50 of the listed molecule: C[C@H](NC(=O)[C@@H](N)Cc1ccc(O)cc1)C(=O)N[C@H]1Cc2ccccc2CN(CC(=O)N[C@@H](Cc2ccc(O)cc2)C(=O)N2CCC[C@H]2C(=O)N[C@@H](CO)C(N)=O)C1=O
Result :: 17.4
